Every entry's value here was drawn from the supplement of paper PMC9170038.

Tested on: MS2 coat protein
Test: apparent KD of MS2 coat protein; higher = weaker reporter binding
Details: Eterna round: R107; input ligand: none
Each entry below carries its recorded apparent KD of MS2 coat protein.
Please state the figure in nM; there is no need to write the unit.

Please review the entries below; each comes with its answer.
Request: Write down apparent KD of MS2 coat protein measured for item UGGGUAGCAUAGAUUGAUAGCUACACUGAAGGAGCGAGGAUAACCUCAGGUAGGUCGCAGACAUGAGGAUCACCCAUGUAGAUGG [Same State Arginine A GF17]
Response: 254

Request: Write down apparent KD of MS2 coat protein measured for item CAAGAACAGCCAGAUCUUGGCAGCUGAGAAGGAGCGCGGGAAGCCGCAGGUAGGUCGCUCAGGAAUACAUGAGGAUCACCCAUGU [Beoror]
Response: 17.6

***
Request: Write down apparent KD of MS2 coat protein measured for item CCGACGAUGACUAUGGGUCAGGAGUGCGUACGAGGACCGGUACGGCCGCCACUCGAGGAGUGGGACAUGAGGAUCACCCAUGUGG [#19 Exclusion Tryptophan A]
Response: 50.2

----------
System: MS2 coat protein
Assay: apparent KD of MS2 coat protein, switch ON state; designed switch direction (-1 OFF switch, 1 ON switch): -1; higher = weaker reporter binding
Details: FMN input: 0 or 200 uM; Eterna round: R93 (includes R88 designs)
readout.name: apparent KD of MS2 coat protein (nM)
Please state the figure in nM; there is no need to write the unit.

Please review the entries below; each comes with its answer.
Request: Write down apparent KD of MS2 coat protein measured for item AAAAAACAUGAGGAUCACCCAUGUGAGGAUAUUAAAAAUAAGAAGGCAUAAAAAAAAAUAAGAAGGCACAUGAA [Meechl MS2 Ex1]
Response: 27.9

Request: Write down apparent KD of MS2 coat protein measured for item AAAAAACAUGAGGAUCACCCAUGUUAGGAUAUGCAGAGGGAAAAAAAAAAAAAAAAAAGCAGAAGGAACAUAAA [Design1]
Response: 31.5

Request: Write down apparent KD of MS2 coat protein measured for item AAUUCACAUGAGGAUCACCCAUGUAAGGAUAUCGAAAUAAAACUAAUCAAUAAACAAACGAGAAGGUACAAAAA [Exclusion 1 design 8]
Response: 20.4

Request: Write down apparent KD of MS2 coat protein measured for item CUCAUGUCAGGAUAUCAGUAGUAAAAAAAUAAAAUUACUACUGAGAAGGGACAUGAGGAUCACCCAUGUCCAAA [EX4 367: Super Stable 67]
Response: 93.1

Request: Write down apparent KD of MS2 coat protein measured for item AAAAUACGAGGAUAUACAUGAGGAUCACCCAUGUCAAAAAAUGACUACACAAAAGAAAGUAGAAGGCGUAAAAG [Mat - Exclusion 3 - Mayanna mod - D127]
Response: 24

***
Request: Write down apparent KD of MS2 coat protein measured for item AGCUAGUCAGGAUAUACGAAAAUGUAAAAAGAAGUGAAGGGACAUGAGGAUCACCCAUGUAGAAGGGACUAGAA [74%, Web mod - With 4 less C's]
Response: 58

Request: Write down apparent KD of MS2 coat protein measured for item AAGAACCGAGGAUAUACAUGAGGAUCACCCAUGUAAAAGAAAGAAGGGAAAGAGAAAAGUAGAAGGCGGAAGAA [Usermaatre Shoshenq VI]
Response: 36.1

Request: Write down apparent KD of MS2 coat protein measured for item AAAAAGUGAGGAUAUUCGGAUAGGAAAACGAAAACCUAUCCGAAGAAGGCACAUGAGGAUCACCCAUGUGGGAA [67% Ecls-II - Early G + late G segment 3]
Response: 52.6

Request: Write down apparent KD of MS2 coat protein measured for item AAGAAACAUGAGGAUCACCCAUGUGAGGAUAUGGAAAAGAAAAGAAAAGAAAGAAGAACCAGAAGGCACAAAGG [Neferkare (VI) Pepiseneb]
Response: 71.8

Request: Write down apparent KD of MS2 coat protein measured for item CCCUCACAUGAGGAUCACCCAUGUGAGGAUAUGCAUAAAAAAAAAAAAAAAAAAAAAUGCAGAAGGCACAUGAA [jn_irvington]
Response: 13
